Experimental Details: AUC in CD1 mouse at 133 umol/kg, ip
Format: ADME, organism-based
Condition Notes: plasma
Reported Metric: AUC
Your reply should be a number followed by the unit it is expressed in.

Please look up its AUC: Nc1n[n+]([O-])c2ccccc2[n+]1[O-] [TIRAPAZAMINE] 49.2 µM·h

====

Experimental Details: Cmax in CD1 mouse at 316 umol/kg, ip
Format: ADME, organism-based
Set-up: dose 316 umol/kg, route intraperitoneal
Condition Notes: in vivo
Reported Metric: Cmax (µM)
The figure you give is taken to be in µM; do not add the unit.

>>> reported_measurement("CCCN(CCC)CCNc1n[n+]([O-])c2ccccc2[n+]1[O-]")
17
>>> reported_measurement("CCCN(CCC)CCNc1n[n+]([O-])c2ccc(C)cc2[n+]1[O-]")
3.8
>>> reported_measurement("CCc1ccc2c(c1)[n+]([O-])c(NCCN(C)C)n[n+]2[O-]")
21.6

Lab note: next compound to report on.
Please look up its Cmax: `COc1ccc2c(c1)[n+]([O-])c(NCCN1CCCCC1)n[n+]2[O-]` 26.7

Attribution: ChEMBL document CHEMBL1138329
